# Read-out: Lipoprotein lipase (LPL), LPL (gene 4023)
# Assay protocol: LTEA_HepaRG_LPL: Life Technologies and Expression Analysis (LTEA) Assay for Lipoprotein lipase (LPL) using HepaRG (AID 2283515)
# Setup conditions: mRNA level, 48 h; actives raise or lower the signal
Calls of active or inactive are those of the source. The calls were made as follows: active = hit-call score of the fitted dose curve at least 0.9, where 1 is the maximum; inactive = score below 0.9.
Measured property: AC50

The examples below pair each entry with its known result.
{"columns": ["Molecule", "AC50"],
 "data": [
  ["CC(O)CN(CCN(CC(C)O)CC(C)O)CC(C)O (centres undefined)", "inactive"],
  ["O=C(CCCCCCCCc1cccnc1)N1CCC(C=C(c2ccccc2)c2ccccc2)CC1", "12.8 µM (active)"],
  ["CC1(C)C(=O)N(Br)C(=O)N1Br", "inactive"],
  ["Nc1cccc(N)c1", "inactive"],
  ["Cc1ccc(O)cc1", "inactive"]
]}

INPUT: Consider the molecule shown here: COC(=O)c1ccccc1O What is its recorded AC50?
OUTPUT: inactive

INPUT: Consider the molecule shown here: CC/C(=C\C(=N/O)C(N)=O)C(C)[N+](=O)[O-] (centres undefined) What is its recorded AC50?
OUTPUT: inactive

INPUT: Consider the molecule shown here: CC[C@H](C)C(=O)O[C@H]1C[C@@H](C)C=C2C=C[C@H](C)[C@H](CC[C@@H]3C[C@@H](O)CC(=O)O3)[C@H]21 What is its recorded AC50?
OUTPUT: inactive

INPUT: Consider the molecule shown here: CN(C)c1ccc(N=NS(=O)(=O)O)cc1 What is its recorded AC50?
OUTPUT: inactive

INPUT: Consider the molecule shown here: CCn1nc(Cc2ccccc2)cc1C1CCN(C[C@H]2C[C@H](N(C)[C@@H](C(=O)O)C(C)C)C[C@@H]2c2cccc(F)c2)CC1 What is its recorded AC50?
OUTPUT: 50 µM (active)

INPUT: Consider the molecule shown here: CNCc1ccc(NC(=O)c2c[nH]c3c2C(=O)CCC3)cc1 What is its recorded AC50?
OUTPUT: inactive

INPUT: Consider the molecule shown here: COc1cccc(-c2ccc(/C=C\CN3CCCCCC3)cc2Cl)c1 What is its recorded AC50?
OUTPUT: 79 µM (active)

INPUT: Consider the molecule shown here: On1ccccc1=S What is its recorded AC50?
OUTPUT: inactive

INPUT: Consider the molecule shown here: Cc1ccc(C)c(O)c1 What is its recorded AC50?
OUTPUT: inactive

INPUT: Consider the molecule shown here: Cc1c(-c2cccnc2)c2ccccc2n1CCCCC(=O)O What is its recorded AC50?
OUTPUT: inactive

INPUT: Consider the molecule shown here: O=c1[nH]c2ccc(S(=O)CCN3CCC(Cc4ccc(F)cc4)CC3)cc2o1 (centres undefined) What is its recorded AC50?
OUTPUT: 59.5 µM (active)

INPUT: Consider the molecule shown here: O=C(O)c1cc(N=Nc2ccc(S(=O)(=O)Nc3ccccn3)cc2)ccc1O What is its recorded AC50?
OUTPUT: inactive

INPUT: Consider the molecule shown here: O=C(NS(=O)(=O)/C=C/c1ccccc1)c1ccc(F)cc1Cl What is its recorded AC50?
OUTPUT: inactive

INPUT: Consider the molecule shown here: O=C1CCCCCN1 What is its recorded AC50?
OUTPUT: inactive

INPUT: Consider the molecule shown here: CCCCCCCCCCCCc1ccccc1 What is its recorded AC50?
OUTPUT: inactive

INPUT: Consider the molecule shown here: C1=CCCC=CCCC=CCC1 What is its recorded AC50?
OUTPUT: inactive

INPUT: Consider the molecule shown here: CC[C@H]1OC(=O)[C@H](C)[C@@H](O[C@H]2C[C@@](C)(OC)[C@@H](O)[C@H](C)O2)[C@H](C)[C@@H](O[C@@H]2O[C@H](C)C[C@H](N(C)C)[C@H]2O)[C@](C)(O)C[C@@H](C)C(=O)[C@H](C)[C@@H](O)[C@]1(C)O What is its recorded AC50?
OUTPUT: inactive

INPUT: Consider the molecule shown here: CC(=O)OCCC(C)C What is its recorded AC50?
OUTPUT: inactive

INPUT: Consider the molecule shown here: CC(=O)OC[C@H]1O[C@@](COC(C)=O)(O[C@H]2O[C@H](COC(C)=O)[C@@H](OC(C)=O)[C@H](OC(C)=O)[C@H]2OC(C)=O)[C@@H](OC(C)=O)[C@@H]1OC(C)=O What is its recorded AC50?
OUTPUT: inactive

INPUT: Consider the molecule shown here: COc1ccc2sc(C(=O)Nc3nnn[nH]3)c(OC(C)C)c2c1 What is its recorded AC50?
OUTPUT: 12.7 µM (active)

INPUT: Consider the molecule shown here: O=c1n(CC2CO2)c(=O)n(CC2CO2)c(=O)n1CC1CO1 (centres undefined) What is its recorded AC50?
OUTPUT: inactive

INPUT: Consider the molecule shown here: Cc1[nH]cnc1C[C@H]1CCc2c(C)c3ccccc3n2C1=O What is its recorded AC50?
OUTPUT: 79 µM (active)

INPUT: Consider the molecule shown here: CCOCCO What is its recorded AC50?
OUTPUT: inactive

* * *

# Study system: Nuclear respiratory factor 1 (Homo sapiens) (UniProt Q16656)
# Sequence (Q16656 whole entry, looked up): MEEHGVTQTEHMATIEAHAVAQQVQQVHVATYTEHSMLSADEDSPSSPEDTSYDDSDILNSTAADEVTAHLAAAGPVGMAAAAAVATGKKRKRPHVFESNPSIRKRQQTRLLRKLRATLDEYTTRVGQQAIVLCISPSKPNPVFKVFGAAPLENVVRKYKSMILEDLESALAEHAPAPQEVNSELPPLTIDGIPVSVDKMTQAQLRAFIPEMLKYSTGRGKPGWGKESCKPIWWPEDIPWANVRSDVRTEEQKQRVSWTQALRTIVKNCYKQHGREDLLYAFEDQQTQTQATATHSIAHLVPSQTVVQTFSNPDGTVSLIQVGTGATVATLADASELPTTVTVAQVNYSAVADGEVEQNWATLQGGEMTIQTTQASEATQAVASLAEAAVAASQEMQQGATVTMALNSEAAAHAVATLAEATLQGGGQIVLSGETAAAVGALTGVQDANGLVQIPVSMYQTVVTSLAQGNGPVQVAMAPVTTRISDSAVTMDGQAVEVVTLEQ
# Assay protocol: ATG_NRF1_CIS: Attagene CIS-FACTORIAL HepG2 Assay for human Nuclear Respiratory Factor 1 (NRF1) Orphan Gene (AID 2282987)
# Setup conditions: HepG2 NRF1 cis-element reporter, Attagene multiplex; actives raise or lower the signal
Calls of active or inactive are those of the source. Rule for the calls: active = hit-call score of the fitted dose curve at least 0.9, where 1 is the maximum; inactive = score below 0.9.
Please reply with one of these outcomes: Yes for active, No for inactive

Look over these answered cases.
{"columns": ["Smiles text", "Answer label"],
 "data": [
  ["CN(C)c1ccc(N=NS(=O)(=O)O)cc1", "No"],
  ["On1ccccc1=S", "No"],
  ["Cn1c(=O)cc(Oc2ccc(F)cc2F)c2cnc(NCC(C)(C)O)nc21", "Yes"],
  ["CC[C@H]1CC[C@H](NCc2cc3c(cc2OC)[C@H]2C[C@H]2C(=O)N3C)[C@H](c2ccccc2)N1", "No"],
  ["CCCCCCCCCCCCCCCO", "No"],
  ["CCC(C)(C)C(=O)O[C@H]1C[C@@H](C)C=C2C=C[C@H](C)[C@H](CC[C@@H]3C[C@@H](O)CC(=O)O3)[C@H]21", "No"]
]}

INPUT: Status in this test for CCN(C(=O)c1cc(C)cc(OC[C@H](C)Nc2ccncc2)c1)C(C)C ?
OUTPUT: No

INPUT: Status in this test for C1N2CN3CN1CN(C2)C3 ?
OUTPUT: No

INPUT: Status in this test for CCOC(=O)CC(CC(=O)OCC)(OC(C)=O)C(=O)OCC ?
OUTPUT: No

INPUT: Status in this test for CC(=O)OC[C@H]1O[C@@](COC(C)=O)(O[C@H]2O[C@H](COC(C)=O)[C@@H](OC(C)=O)[C@H](OC(C)=O)[C@H]2OC(C)=O)[C@@H](OC(C)=O)[C@@H]1OC(C)=O ?
OUTPUT: No

* * *

# Study system: Retinoic acid receptor alpha (Homo sapiens) (UniProt P10276)
# Sequence (P10276 whole entry, looked up): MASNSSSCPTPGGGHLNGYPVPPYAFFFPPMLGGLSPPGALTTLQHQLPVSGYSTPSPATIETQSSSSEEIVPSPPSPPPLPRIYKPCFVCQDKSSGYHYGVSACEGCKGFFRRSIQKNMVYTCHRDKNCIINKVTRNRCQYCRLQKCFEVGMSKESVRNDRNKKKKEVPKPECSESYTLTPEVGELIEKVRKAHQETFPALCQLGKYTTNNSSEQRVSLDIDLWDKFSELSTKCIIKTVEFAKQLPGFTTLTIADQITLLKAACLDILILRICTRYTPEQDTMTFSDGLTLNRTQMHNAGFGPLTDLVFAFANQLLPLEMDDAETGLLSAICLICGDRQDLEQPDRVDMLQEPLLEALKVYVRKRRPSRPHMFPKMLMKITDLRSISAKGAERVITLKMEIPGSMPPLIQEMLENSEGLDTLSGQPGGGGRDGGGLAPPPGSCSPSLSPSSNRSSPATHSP
# Assay protocol: ATG_DR5_RAR_CIS: Attagene CIS-FACTORIAL HepG2 Assay for human Retinoic Acid Receptor Alpha (RARE), DR5 submotif (AID 2282934);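 as to AC50: reporter responds to endogenous RAR alpha beta and gamma in HepG2 not RARA alone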
# Setup conditions: HepG2 Attagene cis-factorial RARE DR5 reporter, mRNA; actives raise or lower the signal
Active and inactive are the calls of the source. How the source made its calls: active means hit-call score of the fitted dose curve at least 0.9, where 1 is the maximum; inactive means score below 0.9.
Measured property: AC50

{"columns": ["Smiles text", "AC50"],
 "data": [
  ["NC(=O)NO", "inactive"],
  ["C=CCCCCCCCCC(=O)O", "inactive"],
  ["C1=CCCC=CCCC=CCC1", "inactive"],
  ["CCN(C(=O)c1cc(C)cc(OC[C@H](C)Nc2ccncc2)c1)C(C)C", "inactive"],
  ["COCCOCCOCCOC", "inactive"]
]}

INPUT: Consider the molecule shown here: CCn1nc(Cc2ccccc2)cc1C1CCN(C[C@H]2C[C@H](N(C)[C@@H](C(=O)O)C(C)C)C[C@@H]2c2cccc(F)c2)CC1 What is its recorded AC50?
OUTPUT: inactive

INPUT: Consider the molecule shown here: O=C(CCCCCCCCc1cccnc1)N1CCC(C=C(c2ccccc2)c2ccccc2)CC1 What is its recorded AC50?
OUTPUT: 1.66 µM (active)

INPUT: Consider the molecule shown here: Cc1ccc(S(=O)(=O)O)cc1C What is its recorded AC50?
OUTPUT: inactive

INPUT: Consider the molecule shown here: CCOCCOCCOCCO What is its recorded AC50?
OUTPUT: inactive

INPUT: Consider the molecule shown here: O=P(OC(CCl)CCl)(OC(CCl)CCl)OC(CCl)CCl What is its recorded AC50?
OUTPUT: inactive

INPUT: Consider the molecule shown here: CC(C)CCCCCCCOC(=O)CCCCC(=O)OCCCCCCCC(C)C What is its recorded AC50?
OUTPUT: 18 µM (active)

INPUT: Consider the molecule shown here: Cn1c(=O)c2c(ncn2C)n(C)c1=O What is its recorded AC50?
OUTPUT: inactive

INPUT: Consider the molecule shown here: CCNc1ccccc1 What is its recorded AC50?
OUTPUT: inactive
